EXPERIMENTAL SYSTEM: T1, human KLK5 (human, UniProt Q9Y337 67-293)
T1 construct: also called huKLK5; KLK5 AMC
T1 sequence: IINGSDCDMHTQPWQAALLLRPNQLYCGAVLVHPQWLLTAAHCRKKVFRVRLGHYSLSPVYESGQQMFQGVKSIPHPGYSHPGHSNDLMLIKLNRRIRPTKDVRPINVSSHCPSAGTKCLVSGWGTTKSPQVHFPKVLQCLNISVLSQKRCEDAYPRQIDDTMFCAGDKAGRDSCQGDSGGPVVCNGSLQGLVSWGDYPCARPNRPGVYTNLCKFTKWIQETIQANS
PROCEDURE TEXT: SPR, one-armed monovalent antibody
Consider the following binders and their measured kon readings.
Just the number please, in M⁻¹ s⁻¹, no unit attached.

BINDER	ENDPOINT VALUE
OA.hu.10C5.N53V.F92Y (antibody, V domains shown, One-armed (OA) monovalent anti-KLK5 antibody with a human IgG1 Fc, with Q38E/Q39K; constant regions and dummy Fc chain not specified) VH: EVQLVESGGGLVQPGGSLRLSCAASGFSLSSYGVTWVRKAPGKGLEWIGYITSVYGVSYYASWAKSRSTISRDTSKNTVYLQMGSLRAEDMAVYYCARENPDYGYAYDAWGQGTTVTVSS VL: AIRMTQSPSSFSASTGDRVTITCQASESISNELSWYQEKPGKAPKLLIYYASTLASGVPSRFSGSGSGTDFTLTISSLQPEDFATYYCAQGYGSSGVENVFGGGTKVEIK	6.41e+06

Reported kon for OA.hu.10C5.N53V.F92Y.S95F (antibody, V domains shown, One-armed (OA) monovalent anti-KLK5 antibody with a human IgG1 Fc, with Q38E/Q39K; constant regions and dummy Fc chain not specified) VH: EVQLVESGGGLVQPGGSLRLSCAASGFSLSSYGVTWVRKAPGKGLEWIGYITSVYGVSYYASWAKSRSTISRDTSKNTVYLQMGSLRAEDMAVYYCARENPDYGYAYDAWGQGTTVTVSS VL: AIRMTQSPSSFSASTGDRVTITCQASESISNELSWYQEKPGKAPKLLIYYASTLASGVPSRFSGSGSGTDFTLTISSLQPEDFATYYCAQGYGSFGVENVFGGGTKVEIK : what is it?
1.01e+07

Reference source for all entries: patent US20240084042A1
